- Test system: Klebsiella pneumoniae
- ASSAY_COMMENT: Potentiation of imipenem induced antibacterial activity against Klebsiella pneumoniae IHMA599644 harbouring VIM-1 incubated for 18 to 22 hrs imipenem by spectrophotometer based analysis
- Type: functional
- STUDY_CONDITIONS: time 18-22 hrs
OBSERVED_PROPERTY: log10 MITC95 (log10 of the value in µM)
Recall that a logarithmic scale is used here: each number is log10 of MITC95 in µM.

entry_smiles=Nc1ccc2cccc(-c3ccc(C(F)(F)F)c(S(N)(=O)=O)c3-c3nn[nH]n3)c2n1 value_measured=0.49
entry_smiles=N=C(N)NCc1ccc(-c2ccc(C(F)(F)F)c(S(N)(=O)=O)c2-c2nn[nH]n2)cc1 value_measured=-0.10

Prompt: Given the entry `NS(=O)(=O)c1cccc(-c2ccc(C3CCNCC3)cc2)c1-c1nn[nH]n1` , report its measured log10 MITC95.
Response: 1.58

Prompt: Given the entry `NS(=O)(=O)c1c(Br)ccc(-c2ccc(C3CCNCC3)cc2)c1-c1nn[nH]n1` , report its measured log10 MITC95.
Response: 0.20

Prompt: Given the entry `NS(=O)(=O)c1c(CC2CCNCC2)ccc(-c2ccc(C3CCNCC3)cc2)c1-c1nn[nH]n1` , report its measured log10 MITC95.
Response: 0.36

Prompt: Given the entry `NS(=O)(=O)c1c(Cl)ccc(-c2ccc(C3CCNCC3)cc2)c1-c1nn[nH]n1` , report its measured log10 MITC95.
Response: 0.20

Prompt: Given the entry `NS(=O)(=O)c1c(C[C@H]2CC[C@H](N)CC2)ccc(-c2ccc(C3CNC3)cc2)c1-c1nn[nH]n1` , report its measured log10 MITC95.
Response: 0.20

Prompt: Given the entry `NS(=O)(=O)c1c(CC2CNC2)ccc(-c2ccc(C3CCNCC3)cc2)c1-c1nn[nH]n1` , report its measured log10 MITC95.
Response: 0.20
